# Test protocol: yeast display, Sf9 membrane polyspecificity reagent, FACS + sequencing; frameworks hold sequencing errors
Reported metric: polyreactivity (PSR sort gate)

Residue sequence	Assay value
QVQLVESGGGLVQAGGSLRLSCAASGSIFAYNAMGWYRQAPGKERELVAAITISGGRTYYADSVKGRFTISRDNAKNTVYLQMNSLKPEDTAVYYCAARYPSGTRKWYGYWGQGTQVTVSS	high polyreactivity
QVQLVESGGGLVQAGGSLRLTCAASGLTFLVYALGWYRQEPGKEWEFVATISKSGGRTYYADSVKGRFTISRDNAKNTVYVQMNSLKPEHTAVDYCAAKGYPYGRLWCGYYRYDYWGQGTQVTVSS	high polyreactivity

----------
# Test protocol: yeast display, Sf9 membrane polyspecificity reagent, FACS + sequencing; frameworks hold sequencing errors
Reported metric: polyreactivity (PSR sort gate)

Look over these answered cases.
Residue sequence	Reported metric	Assay value
QVQLVESGGGLVHAGGSLRLSCAASGSIFYSNVMGWYRQAPGKERELVAAITRGGGTNYADSVKGRFTISRDNAKNTVYLQMNSLKPEDTAVYYCNRDPQKYRWIPRYDYWGQGTQVTVSS	polyreactivity (PSR sort gate)	low polyreactivity
QVQLVESGGGLVQAGGSLRLSCAASGIIYTYYAMGWYRQAPGKERELVARISSSGGRTYYADSVKGRFTISRDNAKNTVYLQMNSLKPEDTAVYYCAAAIVSYGRNDYWGQGTQVTVSS	polyreactivity (PSR sort gate)	high polyreactivity
QVQLVESGGGLVQAGGSLRLSCAASGLTFPGYVMGWYRQAPGKERELVAAITNGGRTYYADSVKGRFTISRDNAMNTVYLQMNSLKPEDTAVYYCNTARGSKDPPHYYWGQGTQVTVSS	polyreactivity (PSR sort gate)	high polyreactivity
QVQLVESGGGLVQAGGSLRLSSAASGSNFGYKAMGWYRQEPGKEREMVAAISYSGASTYYADSVKGRFTISRDNAKNTVYLQKHSLKPEDTAVYYCAAGWKRFSGRKHYYWGQGTQVTVSS	polyreactivity (PSR sort gate)	high polyreactivity

Which polyreactivity (PSR sort gate) value belongs to QVQLVESGGGLVQAGGSLRLSCAASGTIFDVNALGWYRQAPGKERELVAAITSGGGTNYADSVKGRFTISRDNAKNTVYLQMNSLKPEDTAVYYCAADHVYYDYDYWGQGTQVTVSS ?
low polyreactivity

----------
# Test protocol: yeast display, Sf9 membrane polyspecificity reagent, FACS + sequencing; frameworks hold sequencing errors

Residue sequence	polyreactivity (PSR sort gate)
QVHLVESGGGLDQAGGSLRLICAASGSIFDYYAMGWYRQAPGKERELVAAIDNPDSTNYADSVKGRFTLSRDNAKNTVYLQMNSLKPEDTAVYYCAASSRTVWYPGVGYYYWGQGTQVTVSS	low polyreactivity
QVQLVESGGGLVQAGGSLRLICAASGSTFPTYAMGWYRQAPGKERELVAAISTRGGSTYYADSVKGRFTISRDNAKNTVYLQMNSVKPEDTAVYYCATGKTVGRYHYEYWGQGTQVTVSS	low polyreactivity

----------
# Test protocol: yeast display, Sf9 membrane polyspecificity reagent, FACS + sequencing; frameworks hold sequencing errors
Reported metric: polyreactivity (PSR sort gate)

Residue sequence	Reported metric	Assay value
QVQLVESGGGLVQAGGSLRLSCAASGFTFPGYAMGWYRQAPGNEREFVAAITWSGGRTYYADSVKGRFTISRDNAKNTVYLQMNSLKPEDTAVYYCAAVYRGTWYDYDYWGQGTQVTVSS	polyreactivity (PSR sort gate)	high polyreactivity
QGQRVESGGGLVQAGGSLRLSCAPSGRTFKYYAMGWYRQAPGKERELFAAISYTGGSTYFADSVMGRFTISRDNAKNTVYLQMNSLKPEDTAVYYCARSYYTNGNALKRDYWGQGTQVTVSS	polyreactivity (PSR sort gate)	high polyreactivity
QVQLVASGVGLVQAVGSLRLSCAASGITFQYYTMGWYRQAPGKERELVAAINWSGGSTYYADSVKGRFTISRDNAKNTVYLQMNSLKPEDTAVYYCNAVRFVEHDYWGQGTQVTVSS	polyreactivity (PSR sort gate)	high polyreactivity
QVQLVESGGGLVQAGGSLRLSCAASGRTMGYNTMGWYRQAPGKERELVARISYGGSTYYAESVKGRFTISRDNAKNTVYLQMNSLIPEDTAVYYCAAEARSYRYPYNYWGQGTQVTVSS	polyreactivity (PSR sort gate)	high polyreactivity

Please find the next sequence below.
Which polyreactivity (PSR sort gate) value belongs to QVQLVESGGGLVQAGGSLRLSCASSGRTFLRYAMGWYRQAPGKERELVAAISSRGGTTHYADSVKGRFTISRDNAKNTVYLPMNSLKPEDTAVYYCAAKSFLPYLKFGYWGQGTQVTVSS ?
high polyreactivity

----------
# Test protocol: yeast display, Sf9 membrane polyspecificity reagent, FACS + sequencing; frameworks hold sequencing errors
Reported metric: polyreactivity (PSR sort gate)

Residue sequence	Reported metric	Assay value
QVQLVESGGGLVQAGGSLRLSCAASGRTSWRYAMGWYRQAPGKERELVAAINRGGSTYYADSVMGRFTISRDNAKNTVYLQMNSLKPEDTAVYYFAVDTPLVYYHQQAYVAGEYWGQGTQVTVSS	polyreactivity (PSR sort gate)	low polyreactivity
QVQLVESGGGLVQAGGSLRLSCAASGRIFYYYGMGWYRQAPGKERELVAAISNGGRTYYADSVKGRFTISRDNAKNTVYLQMNSLKPEDTAVYYCAALTRGRGGYDYWGLGTQVTVSS	polyreactivity (PSR sort gate)	high polyreactivity
QVQLVESGGGLFQAGGSLRISCAASGSTFRGYVMGWYRQAPGKERELVAAISRSGTSTYYADSVKGRFTISRDNAKNTVYLQMNSLKPEDTAVYYCAAQLYGHGEDYWGQGTQVTVSS	polyreactivity (PSR sort gate)	high polyreactivity
QVQLVESGGGLVQAGGSLRLSCAASGSIFYYYAMGWYRQAPGKERELVAAISRNGGSTSYADSVKGRFTISRDNAKNTVYLQMNSLKPEDTAVYYCNTYGGYKYDYWGQGTQVTVSS	polyreactivity (PSR sort gate)	low polyreactivity

Please find the next sequence below.
Which polyreactivity (PSR sort gate) value belongs to QVQLVESGGGLVQAGGSNRLSCAASGFTFYRNVMGWYRQAPGKERELVAARTWNGGTTYYADSEKGRFTISRDTAKSSVYLQMDSLQREDTAVYFCAAASRHTGSYRFYYWGQGTQVTVSS ?
high polyreactivity

----------
# Test protocol: yeast display, Sf9 membrane polyspecificity reagent, FACS + sequencing; frameworks hold sequencing errors
Reported metric: polyreactivity (PSR sort gate)

Look over these answered cases.
Residue sequence	polyreactivity (PSR sort gate)
QVQLVESGGGLVQEGGSLRLSCAASGRTSGFNTMGWYRQAPRKERELVAAISFSGGSTYYADSVKGRFTISRDNAKNTVYLQMNSLNPEDTAVYYCNALYRYLYRSGDYWGHGTQVTVSS	low polyreactivity
QVQLVESGGGLVQAGGSLRLSCAASGFIFRRYAMGWYRPAPGKVWELVAAITLRGGSTYYADSVKGRFTISRDNAKNTVYLQMNSLKPEATAVYYCAAGVRGQHDGYYWGQGTQETVSS	high polyreactivity
QVQLVESGGGLVQAGGSLRLSCAASGSTFSSYAMGWYRPAPGKERELVARITSGGSTYYADSVKGRFTISRDNAKNTVYLQMNSLKPEDTAVYYCAARGYYYRSRVSQFKYDYWGQGTQVTVSS	high polyreactivity
QVQLVESGGGLVQAGGSLRLSCAASGFTFTTYAMGWYRQAPGKERELVARISRRSGSTYYADSVKGRFTISRDNAKNTVYLQMNSLKPEDTAVYYCNADVDRSTTIFDYWGQGTQVTVSS	high polyreactivity
QVQLVESGGGLVQAGGRLRLSCAASGISFRFNAMGWYRQAPGKEREFVAAITYSGDSTYDADSVMGRFTISRDNAKNTVYLQKNSLKPEDTAVYYCAADYYAIYRRIFYYWGQGTQVTVSS	low polyreactivity

Please find the next sequence below.
Which polyreactivity (PSR sort gate) value belongs to QVQLVESGGGLVQEGGSLRLSCAASGRISYIYAMGWYRQAQGKERELVAAITRGGSTNYADSVKGCFTISRDNAKNTVYLQMNSLKPEDTAVYYCAARRRRSGGYEYDYWGQGTQVTVSS ?
high polyreactivity

----------
# Test protocol: yeast display, Sf9 membrane polyspecificity reagent, FACS + sequencing; frameworks hold sequencing errors
Reported metric: polyreactivity (PSR sort gate)

Look over these answered cases.
Residue sequence	polyreactivity (PSR sort gate)
QVQLVESGGGLVQAGGSLRLSCAASGLIFTYYAMGWYRQAPGKERELVAAITSGGSTNYADSVKGRFTISRDNAKYTVYLQMNSLKPEDTAVYYCAADYDTGSERYEYWGQGSQVTVSS	low polyreactivity
QVQLVESGGGLVQAGGSLRLSCAASGSISSLNTMGWYRQAPGKERELVASISRRGGSTYYADSVKGRFTISRDNAKNTVYLQINSLKPEDTAVFYCAARGVGGTVPTRYDYWGQGTQVTVSS	high polyreactivity
QLQLVESGGGLVQAGGSLRLSCAASGRIFDYYAIGWYRQAPGKERQLVATINFSDGSTYYADSVKGRFTISRDNAKNTVYLQMNSLKPEDTAVYYCAAAGWEPYDSLDMNYWGQGTQVTVSS	low polyreactivity
QVQLVESGGGLVQAGGSLRLSCAASGSIFASNAMGWYSPAPGKERELVAAINSGDSTNYADSVKGRFTISRDNAKNTVYLQMNSLKPEDTAVYYCARGLEERYDYWGQGTQVTVSS	low polyreactivity

Which polyreactivity (PSR sort gate) value belongs to QVQLVETGGGLVQAGGSLSLSCAGSVSTFWFYPMGCYRQATGKEREFVATISRSGGSTHNADSVKGRFTISSDNAKNTVYLQMNSLKPEDTAVYYCAKYQRYYSNDYNYWGQGTQVTVSS ?
high polyreactivity

From: the nanobody polyreactivity screen of Harvey et al. (2022)
